# Test system: ACHN renal
# MEASUREMENT_NOTES: NCI tumour cell line growth inhibition, 48 h
Property: TGI; scope: individual compounds
Record the value in µM, omitting the unit from your answer.

Here is how some compounds turned out for TGI.
Report TGI for OCCN=C1c2ccccc2C2C(c3ccccc31)C1c3ccccc3C(=NCCO)c3ccccc3C21 (stereo not given)
76.9

Report TGI for COc1c(B(O)O)cccc1-c1nc2c(F)cc3[nH]ncc3c2c2c1CCCC2
42.8

Report TGI for NC(=O)c1cc(Cl)ccc1NC(=O)c1ccccc1-c1ccccc1
87.6

From here, focus on the item given below.
Report TGI for O=C1OC(C2OC(=O)c3cc(O)c(O)c(O)c3-c3c(O)c(O)c4oc(=O)c5c(c(O)c(O)c6oc(=O)c3c4c65)-c3c(cc(O)c(O)c3O)C(=O)OCC2O)C2OC(=O)c3c(c(O)c(O)c(O)c3[C@H]2O)-c2c1cc(O)c(O)c2O (stereo not given in full)
80.3

====

# Tested on: 786-0 renal
# MEASUREMENT_NOTES: NCI tumour cell line growth inhibition, 48 h
ENDPOINT_NAME: TGI (µM)
Record the value in µM, omitting the unit from your answer.

Here is how some molecules turned out for TGI.
Please report TGI with 786-0 renal for item N#C[C@@]12CCCC(=O)[C@@H]1[C@H]1CCC[C@H]12 .
29.4

Please report TGI with 786-0 renal for item CC1=C(/C=C/C2=CC(=C\C(=O)O)/CC(C3=C(C)CCCC3(C)C)C2)C(C)(C)CCC1 (centres undefined) .
28.4

Please report TGI with 786-0 renal for item CCC1CCCCN1C(=S)N/N=C(\C)c1ccccn1 (centres undefined) .
2.39

From here, focus on the item given below.
Please report TGI with 786-0 renal for item O=C(/C=C\Nc1ccccc1O)C(Cl)(Cl)Cl .
64.7

====

# Test system: 786-0 renal
# MEASUREMENT_NOTES: NCI tumour cell line growth inhibition, 48 h; in the data active means GI50 below about 0.43 µM; inactive means the rest
Your reply should match one of these outcome classes. yes = active, no = inactive

Given O=C1C(Cl)=C(Nc2cccc(O)c2)C(=O)N1c1cccc(Cl)c1 , state the outcome it received in this test.
no

We next turn to a different compound, shown below.
Given COc1cc([C@@H]2c3cc4c(cc3[C@H](OC(C)=O)[C@H]3COC(=O)[C@H]23)OCO4)cc(OC)c1OC , state the outcome it received in this test.
yes

====

# Test system: NCI-H226 lung
# MEASUREMENT_NOTES: NCI tumour cell line growth inhibition, 48 h; in the data active = GI50 below about 0.43 µM; inactive = the rest
Your reply should match one of these outcome classes. active, inactive

# example entries with known answers
Given CCn1cc(C(=O)N/N=C/c2cccc(F)c2)c(=O)c2cc(F)c(N3CCNC(C)C3)c(F)c21 (stereo not drawn) , state the outcome it received in this test.
inactive

Given COc1cc([C@@H]2c3cc4c(cc3[C@H](OC(C)=O)[C@H]3COC(=O)[C@H]23)OCO4)cc(OC)c1OC , state the outcome it received in this test.
active

Further cases:
Given COc1cc2c(=O)n(CCCn3ccnc3)c3c4cc5c(cc4ccc3c2cc1OC)OCO5 , state the outcome it received in this test.
active

Given COc1c(B(O)O)cccc1-c1nc2c(F)cc3[nH]ncc3c2c2c1CCCC2 , state the outcome it received in this test.
inactive

Given CCCCNC(=O)Oc1ccc2c(=O)c3sc4c(=O)c5ccccc5c(=O)c4c3c(=O)c2c1 , state the outcome it received in this test.
inactive

Given C[C@@H](Oc1cc(NS(=O)(=O)N2CCC2)nc(SCc2cccc(F)c2F)n1)[C@@H](O)CO , state the outcome it received in this test.
inactive

Given CCC1CCCCN1C(=S)N/N=C(\C)c1ccccn1 (stereo not drawn) , state the outcome it received in this test.
inactive

Given CC1(C)CCC2(C(=O)O)CC[C@]3(C)C(=CCC4C5(C)CC[C@H](OC6OC(C(=O)O)C(O)C(OC7OC(CO)C(O)C(O)C7O)C6OC6OC(CO)C(O)C(O)C6O)C(C)(C)C5CCC43C)C2C1 (stereo partly drawn) , state the outcome it received in this test.
inactive

Recorded values, source PubChem BioAssay (NCI).
